molecular target: T1, human IGF2^1-67 (mature insulin-like growth factor 2) (human, UniProt P01344 25-91, biotinylated (site not stated) where immobilised on the chip (Tables 1-4)); test: SPR kinetic, biotin-IGF2 on chip, pH 7.4
T1 construct: mature; also called mature IGF2; biotinylated IGF2
T1 sequence (P01344 25-91): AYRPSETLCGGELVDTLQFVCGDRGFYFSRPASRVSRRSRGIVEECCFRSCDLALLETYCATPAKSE

>  <BINDER>
domain 11^AB5 K1601A (receptor, See m5) MKSNEHDDCQVTNPSTGHLFDLSSLSGRAGFTAAYAKGWGVYMSICGENENCPPGVGACFGQTRISVGKANKRLRYVDQVLQLVYKDGSPCPSASGLSYKSVISFVCRPEAGPTNRPMLISLDKQTCTLFFSWHTPLACEQATECSV

>  <Kd>
6.8 nM

$$$$
>  <BINDER>
domain 11^AB5 S1600N (receptor, See m5) MKSNEHDDCQVTNPSTGHLFDLSSLSGRAGFTAAYAKGWGVYMSICGENENCPPGVGACFGQTRISVGKANKRLRYVDQVLQLVYKDGSPCPNKSGLSYKSVISFVCRPEAGPTNRPMLISLDKQTCTLFFSWHTPLACEQATECSV

>  <Kd>
24.4 nM

$$$$
>  <BINDER>
domain 11^AB5 L1604A (receptor, See m5) MKSNEHDDCQVTNPSTGHLFDLSSLSGRAGFTAAYAKGWGVYMSICGENENCPPGVGACFGQTRISVGKANKRLRYVDQVLQLVYKDGSPCPSKSGASYKSVISFVCRPEAGPTNRPMLISLDKQTCTLFFSWHTPLACEQATECSV

>  <Kd>
48.3 nM

$$$$
>  <BINDER>
domain 11^AB5 P1599G (receptor, See m5; the asterisk is not explained) MKSNEHDDCQVTNPSTGHLFDLSSLSGRAGFTAAYAKGWGVYMSICGENENCPPGVGACFGQTRISVGKANKRLRYVDQVLQLVYKDGSPCGSKSGLSYKSVISFVCRPEAGPTNRPMLISLDKQTCTLFFSWHTPLACEQATECSV

>  <Kd>
> 200 nM

$$$$
